measurement.protocol: Permeability of SAMe across Caco-2 cell monolayers (Example 3)
recorded.conditions: human, Caco-2, pH 7.4
observed.property: Papp B→A at 120 min (×10⁻⁶ cm/s)

compound="CC(C)NCC(O)COc1cccc2ccccc12 (stereo not shown)" unit_of_measurement="×10⁻⁶ cm/s" endpoint_value=18.4

###

Tested on: Caco-2 cell monolayers
measurement.protocol: 24 hour resistance recovery test (Caco-2 cell recovery post treatment)
Type: cell-based, human
recorded.conditions: enhancer 0.15 mM
observed.property: TEER Resist. 24 hour post assay (ohms)

smiles_notation=CCCCCCCCCCCCCC[N+](C)(C)CCCS(=O)(=O)[O-] observed_property="TEER Resist. 24 hour post assay" endpoint_value=1892
smiles_notation=CCCCCCCC[N+](C)(C)CCCS(=O)(=O)[O-] observed_property="TEER Resist. 24 hour post assay" endpoint_value=1553
smiles_notation=CCCCCCCCCCCCCCCCCC[N+](C)(C)CCCS(=O)(=O)[O-] observed_property="TEER Resist. 24 hour post assay" endpoint_value=292
smiles_notation=CCCCCCCCCCCC[N+](C)(C)CCCS(=O)(=O)[O-] observed_property="TEER Resist. 24 hour post assay" endpoint_value=1923
